- test-summary: Oral bioavailability in rat at 5 mg/kg
- Format: ADME, organism-based
- assay-conditions: in vivo
Reported bioavailability values follow for various molecules

Example entries and their recorded answers appear below.
O=C(c1nn2c(C(F)(F)F)cc(C3CC3)cc2c1Cl)N1CCC2(CC1)OCC1(CC1)CO2 29%
CN1CC2(CCN(C(=O)c3nn4c(C(F)(F)F)cc(C5CC5)cc4c3Cl)CC2)OC1=O 72%
CN1C[C@@]2(CCN(C(=O)c3nn4c(C(F)(F)F)cc(C5CC5)cc4c3Cl)C[C@@H]2O)OC1=O 49%

Task: Look up and state reported bioavailability for `O=C(c1nn2c(C(F)(F)F)cc(C3CC3)cc2c1Cl)N1CCC2(OCC3(CC3)CO2)[C@H](O)C1`
Result: > 100%

---

- test-summary: AUC (0 to 24 hrs) in rat at 5 mg/kg, po
- Assay type: ADME, organism-based
- Set-up: time < 24 hr, dose 5 mg/kg, route oral
- assay-conditions: plasma
readout: AUC(0-t) at 24 h (ng·h/mL)
# output: bare number, implied unit ng·h/mL

Example entries and their recorded answers appear below.
CN1C[C@@]2(CCN(C(=O)c3nn4c(C(F)(F)F)cc(C5CC5)cc4c3Cl)C[C@@H]2O)OC1=O 1530
O=C(c1nn2c(C(F)(F)F)cc(C3CC3)cc2c1Cl)N1CCC2(CC1)OCC1(CC1)CO2 693
O=C(c1nn2c(C(F)(F)F)cc(C3CC3)cc2c1Cl)N1CCC2(OCC3(CC3)CO2)[C@H](O)C1 2790

Task: Look up and state reported AUC(0-t) at 24 h for `CN1CC2(CCN(C(=O)c3nn4c(C(F)(F)F)cc(C5CC5)cc4c3Cl)CC2)OC1=O`
Result: 1060

---

- test-summary: Kinetic solubility of the compound at pH 7.4
- Assay type: physicochemical
- assay-conditions: buffer, read-out: Kinetic_solubility
readout: solubility kinetic (µg/mL)
# output: bare number, implied unit µg/mL

Task: Look up and state reported solubility kinetic for `O=C(c1nn2c(C(F)(F)F)cc(C3CC3)cc2c1Cl)N1CCC2(OCC3(CC3)CO2)[C@H](O)C1`
Result: 323

Task: Look up and state reported solubility kinetic for `O=C(c1nn2c(C(F)(F)F)cc(C3CC3)cc2c1Cl)N1CCC2(CC1)OCC1(CC1)CO2`
Result: 105

Task: Look up and state reported solubility kinetic for `CN1C[C@@]2(CCN(C(=O)c3nn4c(C(F)(F)F)cc(C5CC5)cc4c3Cl)C[C@@H]2O)OC1=O`
Result: 310

Task: Look up and state reported solubility kinetic for `CN1CC2(CCN(C(=O)c3nn4c(C(F)(F)F)cc(C5CC5)cc4c3Cl)CC2)OC1=O`
Result: 267

---

Reported CC50 values follow for various compounds
- test-summary: Cytotoxicity against human HuH7 cells infected with Hepatitis C virus genotype 1b
- Format: cell-based, Huh-7

Example entries and their recorded answers appear below.
CC1(C)COC2(CCN(C(=O)c3nn4c(C(F)(F)F)cc(C5CC5)cc4c3Cl)CC2)OC1 > 25 µM
O=C(c1nn2c(C(F)(F)F)cc(C3CC3)cc2c1Cl)N1CCC2(CC1)OCC1(CO2)CC(O)C1 > 50 µM
CN1C[C@]2(CCN(C(=O)c3nn4c(C(F)(F)F)cc(C5CC5)cc4c3Cl)C[C@@H]2O)OC1=O > 50 µM
O=C(c1nn2c(C(F)(F)F)cc(C3CC3)cc2c1Cl)N1CCC2(CC1)OCCO2 > 50 µM

Turning now to a further record.
Task: Look up and state reported CC50 for `CN1C[C@]2(CCN(C(=O)c3nn4c(C(F)(F)F)cc(C5CC5)cc4c3Cl)C[C@H]2O)OC1=O`
Result: > 50 µM

---

- test-summary: Half life in rat hepatocytes
- Assay type: ADME, cell-based, Hepatocyte
readout: half-life (h)
# output: bare number, implied unit h

Example entries and their recorded answers appear below.
O=C(c1nn2c(C(F)(F)F)cc(C3CC3)cc2c1Cl)N1CCC2(OCC3(CC3)CO2)[C@H](O)C1 0.467
CN1C[C@@]2(CCN(C(=O)c3nn4c(C(F)(F)F)cc(C5CC5)cc4c3Cl)C[C@@H]2O)OC1=O 2.2

Turning now to a further record.
Task: Look up and state reported half-life for `CN1CC2(CCN(C(=O)c3nn4c(C(F)(F)F)cc(C5CC5)cc4c3Cl)CC2)OC1=O`
Result: 1.33

---

- System: Hepatitis C virus
- test-summary: Antiviral activity against Hepatitis C virus genotype 2a
- Format: functional, Hepacivirus hominis
Reported EC50 values follow for various molecules

Example entries and their recorded answers appear below.
CN1C[C@@]2(CCN(C(=O)c3nn4c(C(F)(F)F)cc(C5CC5)cc4c3Cl)C[C@@H]2O)OC1=O 38 µM
O=C(c1nn2c(C(F)(F)F)cc(C3CC3)cc2c1Cl)N1CCC2(OCC3(CC3)CO2)[C@H](O)C1 11.3 µM
CN1CC2(CCN(C(=O)c3nn4c(C(F)(F)F)cc(C5CC5)cc4c3Cl)CC2)OC1=O 6.84 µM

Turning now to a further record.
Task: Look up and state reported EC50 for `O=C(c1nn2c(C(F)(F)F)cc(C3CC3)cc2c1Cl)N1CCC2(CC1)OCC1(CC1)CO2`
Result: 6.84 µM

---

- test-summary: Clearance in rat at 1 mg/kg, iv
- Assay type: ADME, organism-based
- Set-up: dose 1 mg/kg, route intravenous
- assay-conditions: in vivo
readout: clearance (mL/min/kg)
# output: bare number, implied unit mL/min/kg

Example entries and their recorded answers appear below.
CN1CC2(CCN(C(=O)c3nn4c(C(F)(F)F)cc(C5CC5)cc4c3Cl)CC2)OC1=O 56.5
O=C(c1nn2c(C(F)(F)F)cc(C3CC3)cc2c1Cl)N1CCC2(OCC3(CC3)CO2)[C@H](O)C1 35.7
CN1C[C@@]2(CCN(C(=O)c3nn4c(C(F)(F)F)cc(C5CC5)cc4c3Cl)C[C@@H]2O)OC1=O 25.7

Turning now to a further record.
Task: Look up and state reported clearance for `O=C(c1nn2c(C(F)(F)F)cc(C3CC3)cc2c1Cl)N1CCC2(CC1)OCC1(CC1)CO2`
Result: 37.8

---

- test-summary: Cmax in rat at 5 mg/kg, po
- Type: ADME, organism-based
- Design: dose 5 mg/kg, route oral
- assay-conditions: in vivo
readout: Cmax (ng/mL)
# output: bare number, implied unit ng/mL

O=C(c1nn2c(C(F)(F)F)cc(C3CC3)cc2c1Cl)N1CCC2(OCC3(CC3)CO2)[C@H](O)C1 1130
O=C(c1nn2c(C(F)(F)F)cc(C3CC3)cc2c1Cl)N1CCC2(CC1)OCC1(CC1)CO2 254
CN1CC2(CCN(C(=O)c3nn4c(C(F)(F)F)cc(C5CC5)cc4c3Cl)CC2)OC1=O 269

Turning now to a further record.
Task: Look up and state reported Cmax for `CN1C[C@@]2(CCN(C(=O)c3nn4c(C(F)(F)F)cc(C5CC5)cc4c3Cl)C[C@@H]2O)OC1=O`
Result: 344

---

Reported Vd values follow for various compounds
- test-summary: Volume of distribution at steady state in rat at 1 mg/kg, iv and 5 mg/kg, po
- Format: ADME, organism-based
- assay-conditions: in vivo, read-out: Vdss
# output: bare number, implied unit L/kg

Example entries and their recorded answers appear below.
CN1CC2(CCN(C(=O)c3nn4c(C(F)(F)F)cc(C5CC5)cc4c3Cl)CC2)OC1=O 2.1
O=C(c1nn2c(C(F)(F)F)cc(C3CC3)cc2c1Cl)N1CCC2(CC1)OCC1(CC1)CO2 4.5
O=C(c1nn2c(C(F)(F)F)cc(C3CC3)cc2c1Cl)N1CCC2(OCC3(CC3)CO2)[C@H](O)C1 0.8

Turning now to a further record.
Task: Look up and state reported Vd for `CN1C[C@@]2(CCN(C(=O)c3nn4c(C(F)(F)F)cc(C5CC5)cc4c3Cl)C[C@@H]2O)OC1=O`
Result: 2

---

- Tested on: Hepatitis C virus
- test-summary: Antiviral activity against Hepatitis C virus genotype 1b harboring NS4B H94N mutant infected in human HuH7 cells assessed as inhibition of replicon replication after 48 hrs by luciferase reporter gene assay
- Type: functional, cell-based, Hepacivirus hominis
- assay-conditions: Huh-7, 48 h
readout: EC50 (nM)
# output: bare number, implied unit nM

CN1CC2(CCN(C(=O)c3nn4c(C(F)(F)F)cc(C5CC5)cc4c3Cl)CC2)OC1=O 42.7
O=C(c1nn2c(C(F)(F)F)cc(C3CC3)cc2c1Cl)N1CCC2(CC1)OCC1(CC1)CO2 24.3
CN1C[C@@]2(CCN(C(=O)c3nn4c(C(F)(F)F)cc(C5CC5)cc4c3Cl)C[C@@H]2O)OC1=O 175

Turning now to a further record.
Task: Look up and state reported EC50 for `O=C(c1nn2c(C(F)(F)F)cc(C3CC3)cc2c1Cl)N1CCC2(OCC3(CC3)CO2)[C@H](O)C1`
Result: 35.9
